- Test system: B6C3F1 mice, Lewis lung carcinoma iv, survival T/C
- testMethodNotes: NCI In Vivo Anticancer Drug Screen. Data for tumor model Lewis Lung Carcinoma (intravenous) in B6C3F1 mice
- measurementParameters: endpoint: median survival time; dose: 25.0 mg/kg/injection; schedule: Q01DX009 (ip); vehicle: saline; higher = longer survival
Inconclusive results and toxic doses are left out.
property: T/C

>>> obsvalue("[Cl][Co]([Cl])[Cl].[NH-]CC[N-]CC[NH-]")
"103 % of control"
>>> obsvalue("c1csc(C[N+]23CN4CN(CN(C4)C2)C3)c1")
"101 % of control"
>>> obsvalue("CCC(C(=O)O)C(=O)O.[NH-]CC1CCCC[N-]1.[Pt+2]")
"106 % of control"

###

- System: B6C3F1 mice, Lewis lung carcinoma iv, survival T/C
- testMethodNotes: NCI In Vivo Anticancer Drug Screen. Data for tumor model Lewis Lung Carcinoma (intravenous) in B6C3F1 mice
- measurementParameters: endpoint: median survival time; dose: 50.0 mg/kg/injection; schedule: Q01DX009 (ip); vehicle: saline; higher = longer survival
Inconclusive results and toxic doses are left out.
property: T/C

>>> obsvalue("Cc1ncc([N+](=O)[O-])n1CCSC(N)=O")
"110 % of control"
>>> obsvalue("CN(C)CCC(=O)C(=Cc1ccc(O)cc1)C(=O)CCN(C)C")
"102 % of control"
>>> obsvalue("Cn1/c2cc/c1=C(\\c1ccc(S(=O)(=O)O)cc1)c1ccc([n-]1)/C(c1ccc(S(=O)(=O)O)cc1)=c1/cc/c([nH]1)=C(\\c1ccc(S(=O)(=O)O)cc1)c1ccc([n-]1)/C=2c1ccc(S(=O)(=O)O)cc1.O.O=S(=O)(O)C(F)(F)F.[Cu+2]")
"112 % of control"
>>> obsvalue("[Cl][Co]([Cl])[Cl].[NH-]CC[N-]CC[NH-]")
"96 % of control"
>>> obsvalue("CC1(C)COCN1COCCOCN1COCC1(C)C")
"104 % of control"
>>> obsvalue("O=C(O)CP(=O)(O)O")
"97 % of control"
>>> obsvalue("COc1cccc2c1C(=O)c1c(O)c3c(c(O)c1C2=O)CC(O)(C(=O)CO)CC3OC1CC(N)C(O)C(C)O1 (configuration not stated)")
"90 % of control"
>>> obsvalue("Nc1nc(F)nc2c1ncn2C1OC(COP(=O)(O)O)C(O)C1O (configuration not stated)")
"103 % of control"
>>> obsvalue("N=C1CCCS1")
"122 % of control"
>>> obsvalue("Cc1nnc2ncccn12")
"101 % of control"
>>> obsvalue("O=c1n[n+]([O-])ccn1C1OC(CO)C(O)C1O (configuration not stated)")
"117 % of control"
>>> obsvalue("N=C(N)Sc1cc(O)ccc1O")
"104 % of control"
>>> obsvalue("CCCCCC[C@@H](O)C/C=C\\CCCCCCCC(=O)OCCO")
"100 % of control"
>>> obsvalue("[CH3][Sn]([CH3])([Cl])[S]CCN")
"96 % of control"
>>> obsvalue("CC(=O)CC(=O)CCC(=O)O")
"103 % of control"
>>> obsvalue("Nc1ncnc2c1cnn2Cc1ccc(Cl)cc1")
"106 % of control"
>>> obsvalue("O=C(O)C1CC(O)CN1 (configuration not stated)")
"98 % of control"

###

- Tested on: B6C3F1 mice, Lewis lung carcinoma iv, survival T/C
- testMethodNotes: NCI In Vivo Anticancer Drug Screen. Data for tumor model Lewis Lung Carcinoma (intravenous) in B6C3F1 mice
- measurementParameters: endpoint: median survival time; dose: 100.0 mg/kg/injection; schedule: Q01DX009 (ip); vehicle: saline with Tween-80
Inconclusive results and toxic doses are left out. How the source made its calls: active means survival T/C of 150% or more; inactive means T/C below 125% in these data.
Labels: y = active, n = inactive

>>> answerlabel("CCCCOCN(COCCCC)C12CC3CC(CC(C3)C1)C2")
"n"
>>> answerlabel("O=C(Nc1cc(Cl)ccc1C(=O)O)c1cccc(C[n+]2ccccc2)c1")
"n"
>>> answerlabel("N=c1c(C(=O)OCc2ccccc2)ncc(CCl)n1O")
"n"
>>> answerlabel("CC(Cc1ccc(O)c(O)c1)C(C)Cc1ccc(O)c(O)c1 (stereo not drawn)")
"n"
>>> answerlabel("CN=S(=O)(OCCCCCOS(=O)(=NC)c1ccc(C)cc1)c1ccc(C)cc1 (stereo not drawn)")
"n"
>>> answerlabel("C=COC(=O)C(Cc1ccccc1)NC(=O)OCc1ccccc1 (stereo not drawn)")
"n"
>>> answerlabel("COc1ccc2c(ccc3oc([N+](=O)[O-])cc32)c1")
"n"
>>> answerlabel("COc1c(C)c2c(c(O)c1C/C=C(\\C)CCC(=O)O)C(=O)OC2")
"n"
>>> answerlabel("CCCCCC#CC1OC12CCCCC2 (stereo not drawn)")
"n"
>>> answerlabel("COc1cc(C(=O)N/N=C/c2cccc([N+](=O)[O-])c2)cc(OC)c1OC")
"n"
>>> answerlabel("O=C(O)C1Cc2nc[nH]c2CN1CO (stereo not drawn)")
"n"
>>> answerlabel("N#CCCSC(=S)C1CCCC1=N (stereo not drawn)")
"n"
>>> answerlabel("CC[C@H](CC[C@@H](C)C1CC[C@H]2[C@@H]3CC=C4C[C@@H](OP(=O)(N5CC5)N5CC5)CC[C@]4(C)[C@H]3CC[C@]12C)C(C)C (stereo partly drawn)")
"n"
>>> answerlabel("O=C(c1cccnc1)c1cc(-c2ccccn2)c(=O)n2ccccc12")
"n"
>>> answerlabel("CC(=O)ON(C(C)=O)c1ccc(C(N)=O)cc1")
"n"
>>> answerlabel("O=C(Nc1cccc(Cl)c1)ON1C(=O)C2C(C1=O)C1(Cl)C(Cl)C(Cl)C2(Cl)C1(Cl)Cl (stereo not drawn)")
"n"
>>> answerlabel("CC(=O)Nc1cscc1NC(C)=O")
"n"
>>> answerlabel("CCOC(=O)C1(c2ccccc2)C(=O)Oc2ccccc21 (stereo not drawn)")
"n"
>>> answerlabel("Nc1nc(N)c2cc(S(=O)(=O)c3ccccc3)ccc2n1")
"n"
>>> answerlabel("CC(=O)O[C@@]1(C)[C@@H](C)C(=O)O[C@@H]2CCN3CC=C(COC(=O)[C@]1(C)O)[C@H]23")
"y"
>>> answerlabel("CC(C#N)(C#N)N=Nc1ccc(Cl)cc1Cl")
"n"
>>> answerlabel("C1OCN2CSCC12 (stereo not drawn)")
"n"
>>> answerlabel("Cc1ccc(N)c(N)c1")
"n"
>>> answerlabel("CCc1ccc(C2=C(O)C(=O)C(c3ccc(CC)cc3)=C(O)C2=O)cc1")
"n"
>>> answerlabel("COc1cc(Cl)ccc1C")
"n"
>>> answerlabel("CCCCOCN(COCCCC)C(C)Cc1ccccc1 (stereo not drawn)")
"n"
>>> answerlabel("CCCCCCOC(CN(C)C)C(Cl)(Cl)Cl (stereo not drawn)")
"n"
>>> answerlabel("CCOC(=O)c1cn(C)c2c1C(O)=C(C(=O)OC)CC(=O)N2")
"n"
>>> answerlabel("BrC[P+](CBr)(CBr)CBr")
"n"
>>> answerlabel("CCN(CC)c1ccc2[nH]c3c(C(N)=O)cc(=O)c(=O)c=3oc2c1")
"n"
>>> answerlabel("CCSC(=O)N1c2ccc(OC)cc2C=CC1C#N (stereo not drawn)")
"n"
>>> answerlabel("Nc1nc2c(C(=O)N3CCCC3)nnn2c2ccccc12")
"n"
>>> answerlabel("O=C1[C@H]2CCC[C@H]2[C@H]2CCC[C@@H]12")
"n"

###

- Tested on: B6C3F1 mice, Lewis lung carcinoma iv, survival T/C
- testMethodNotes: NCI In Vivo Anticancer Drug Screen. Data for tumor model Lewis Lung Carcinoma (intravenous) in B6C3F1 mice
- measurementParameters: endpoint: median survival time; dose: 400.0 mg/kg/injection; schedule: Q01DX009 (ip); vehicle: saline
Toxic doses and inconclusive results are not listed. How the source made its calls: active means survival T/C of 150% or more; inactive means T/C below 125% in these data.
Labels: active, inactive

>>> answerlabel("CCCCCC[C@@H](O)C/C=C\\CCCCCCCC(=O)OCCO")
"inactive"
>>> answerlabel("Nc1n[nH]c(N)n1")
"inactive"
>>> answerlabel("Nc1ncn(C2OC(CO)C(O)C2O)c(=O)n1 (stereo not drawn)")
"active"
>>> answerlabel("O=C1CCC(=O)N1CO")
"inactive"
>>> answerlabel("Cc1ncc([N+](=O)[O-])n1CCSC(N)=O")
"inactive"
>>> answerlabel("O=c1n[n+]([O-])ccn1C1OC(CO)C(O)C1O (stereo not drawn)")
"inactive"
>>> answerlabel("Cc1nnc2ncccn12")
"inactive"
>>> answerlabel("COC(=O)C(N)Cc1ccc(O)c(O)c1 (stereo not drawn)")
"inactive"
>>> answerlabel("C=CCc1cn(C2CC(O)C(CO)O2)c(=O)[nH]c1=O (stereo not drawn)")
"inactive"
>>> answerlabel("O=C(O)CP(=O)(O)O")
"inactive"
>>> answerlabel("Cn1cnc([N+](=O)[O-])c1SCC(=O)O")
"inactive"
>>> answerlabel("O=[N+]([O-])c1nccn1CC(O)CO (stereo not drawn)")
"inactive"
>>> answerlabel("N#C[C@H](OC1OC(COC2OC(CO)C(O)C(O)C2O)C(O)C(O)C1O)c1ccccc1 (stereo partly drawn)")
"inactive"
